System: endogenous target monocytes in human PBMC
Test: PBMC ex vivo monocyte depletion flow cytometry assay (Example 200)
Assay type: cell-based
Conditions: with anti-cotinine antibody (SEQ ID NO: 11/12), 18-24 hours, EC50 in molar, read-out: Ex Vivo Depletion Assay pEC50 (converted)
Could you please mark criterion met for values of EC50 below 2 nM and criterion not met for values at or above it?

COMPOUND	TARGET_UNDER_TEST	CATEGORY
CN1C(=O)C[C@H](C(=O)NCCO[C@H]2CC[C@@H](OCCCC(=O)N[C@H]3CC[C@H](C(=O)N[C@@H]4C[C@H](NC(C)(C)C)CC[C@@H]4N4CC[C@H](Nc5ncnc6ccc(C(F)(F)F)cc56)C4=O)CC3)CC2)[C@H]1c1cccnc1	endogenous target monocytes in human PBMC	criterion met
CC(C)N(C)[C@@H]1CC[C@H](N2CC[C@H](Nc3ncnc4ccc(C(F)(F)F)cc34)C2=O)[C@H](NC(=O)CCOCCOCCOCCOCCOCCOCCNC(=O)[C@H]2CC(=O)N(C)[C@@H]2c2cccnc2)C1	endogenous target monocytes in human PBMC	criterion not met
CN1C(=O)C[C@H](C(=O)NCCOCCOCCOCCC(=O)N[C@H]2CC[C@H](C(=O)N[C@@H]3C[C@H](NC(C)(C)C)CC[C@@H]3N3CC[C@H](Nc4ncnc5ccc(C(F)(F)F)cc45)C3=O)CC2)[C@H]1c1cccnc1	endogenous target monocytes in human PBMC	criterion not met
CC(C)N(C)[C@@H]1CC[C@H](N2CC[C@H](Nc3ncnc4ccc(C(F)(F)F)cc34)C2=O)[C@H](NC(=O)[C@H]2CC[C@@H](NC(=O)CCOCCNC(=O)COCCCNC(=O)[C@H]3CC(=O)N(C)[C@@H]3c3cccnc3)CC2)C1	endogenous target monocytes in human PBMC	criterion met
CC(C)N(C)[C@@H]1CC[C@H](N2CC[C@H](Nc3ncnc4ccc(C(F)(F)F)cc34)C2=O)[C@H](NC(=O)CCOCCOCCOCCOCCOCCNC(=O)[C@H]2CC(=O)N(C)[C@@H]2c2cccnc2)C1	endogenous target monocytes in human PBMC	criterion not met

Moving on to the next molecule.
Prompt: Find out if reported EC50 for CC(C)N(C)[C@@H]1CC[C@H](N2CC[C@H](Nc3ncnc4ccc(C(F)(F)F)cc34)C2=O)[C@H](NC(=O)[C@H]2CC[C@@H](NC(=O)CCOCCOCCNC(=O)CCNC(=O)[C@H]3CC(=O)N(C)[C@@H]3c3cccnc3)CC2)C1 is less than 2 nM
Completion: criterion met

* * *

Target: anti-cotinine antibody (SEQ ID NO: 11/12, rabbit variable region with human IgG1 Fc DE mutation)
Test: SPR binding of anti-cotinine antibody to ARM compounds, Biacore T200, 37° C. (Example 202)
Conditions: SPR Biacore T200, 37° C., pH 7.4, antibody SEQ ID NO: 11/12 captured on protein A; Kd in molar
ENDPOINT: pKd of Antibody for ARM Compound of Formula (I)
Numbers only.

See these solved cases before continuing.
COMPOUND	REPORTED
CC(C)N(C)[C@@H]1CC[C@H](N2CC[C@H](Nc3ncnc4ccc(C(F)(F)F)cc34)C2=O)[C@H](NC(=O)[C@H]2CC[C@H](NC(=O)CCCC(=O)NCCCOCCCNC(=O)[C@H]3CC(=O)N(C)[C@@H]3c3cccnc3)CC2)C1 [Example 19]	9.19
CC(C)N(C)[C@@H]1CC[C@H](N2CC[C@H](Nc3ncnc4ccc(C(F)(F)F)cc34)C2=O)[C@H](Nc2c(NCCOCCOCCOCCOCCOCCNC(=O)[C@H]3CC(=O)N(C)[C@@H]3c3cccnc3)c(=O)c2=O)C1 [Example 85]	9.6885
CCN1C(=O)C[C@H](C(=O)NCCOCCOCCOCCC(=O)N[C@H]2CC[C@@H](C(=O)N[C@@H]3C[C@H](NC(C)(C)C)CC[C@@H]3N3CC[C@H](Nc4ncnc5ccc(C(F)(F)F)cc45)C3=O)CC2)[C@H]1c1cccnc1 [Example 35]	9.785

For every record below, what is its pKd of Antibody for ARM Compound of Formula (I)?
1. CC(C)N(C)[C@@H]1CC[C@H](N2CC[C@H](Nc3ncnc4ccc(C(F)(F)F)cc34)C2=O)[C@H](NC(=O)COCCNC(=O)CCNC(=O)COCCOCCNC(=O)[C@H]2CC(=O)N(C)[C@@H]2c2cccnc2)C1 [Example 79]
2. CC(C)N(C)[C@@H]1CC[C@H](N2CC[C@H](Nc3ncnc4ccc(C(F)(F)F)cc34)C2=O)[C@H](NC(=O)COCCNC(=O)CNC(=O)CCOCCOCCNC(=O)[C@H]2CC(=O)N(C)[C@@H]2c2cccnc2)C1 [Example 80]
3. CC(C)N(C)[C@@H]1CC[C@H](N2CC[C@H](Nc3ncnc4ccc(C(F)(F)F)cc34)C2=O)[C@H](NC(=O)[C@H]2CC[C@@H](NC(=O)CCO[C@H]3CC[C@H](OCCNC(=O)[C@H]4CC(=O)N(C)[C@@H]4c4cccnc4)CC3)CC2)C1 [Example 112]
4. CC(C)N(C)[C@@H]1CC[C@H](N2CC[C@H](Nc3ncnc4ccc(C(F)(F)F)cc34)C2=O)[C@H](NC(=O)COCCOCCNC(=O)CCOCCOCCNC(=O)[C@H]2CC(=O)N(C)[C@@H]2c2cccnc2)C1 [Example 77]

Completion:
1: 9.126; 2: 9.109; 3: 9.343; 4: 9.152

Prompt: What value of pKd of Antibody for ARM Compound of Formula (I) has been reported for the following compound? CC(C)N(C)[C@@H]1CC[C@H](N2CC[C@H](Nc3ncnc4ccc(C(F)(F)F)cc34)C2=O)[C@H](NC(=O)[C@H]2C[C@@H](NC(=O)CCO[C@H]3CC[C@H](OCCNC(=O)[C@H]4CC(=O)N(C)[C@@H]4c4cccnc4)CC3)C2)C1 [Example 115]
Completion: 9.363
